Biological target: T1, hOX40-his (human, UniProt P43489 29-216)
T1 construct: range 1-216; Made in HEK293; The stated range starts at residue 1 (holds the signal peptide of the entry); no cleavage site stated; not shown: his tag
T1 sequence (looked up): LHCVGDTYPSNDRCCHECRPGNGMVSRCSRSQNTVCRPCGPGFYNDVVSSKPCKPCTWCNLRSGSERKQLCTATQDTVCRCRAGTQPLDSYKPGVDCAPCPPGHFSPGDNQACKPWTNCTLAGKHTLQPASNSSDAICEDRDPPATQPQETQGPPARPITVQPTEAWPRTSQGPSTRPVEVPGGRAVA
Assay: BIACORE, antibody on the probe, 20 nM OX40-his
REPORTED PROPERTY: kon (M⁻¹ s⁻¹)
Write the value in M⁻¹ s⁻¹ as a bare number.

{"BINDER": "Antibody M (antibody, human IgG1, kappa, V domains shown, also called antibody No. 12; anti-OX40 antibody (antibody M)) VH: QVQLVESGGGVVQPGESLRLSCAASGFTFSSYGMHWVRQAPGKGLEWVAVIWEDGSNQYYADSVKGRFTISRDNSKNTLYLQMNSLRAEDTAVYYCAKDNQDTSPDVGIDYWGQGTLVTVSS VL: DIQMTQSPSSLSASVGDRVTITCRASQNISPFLNWYQQKPGKAPKLLIYAAVGLQSGVPSRFSGSGSGTDFTLTISSLQPEDFATYYCQQYTDYPLTFGGGTKVEIKR", "ENDPOINT RESULT": 610000}

Ask | # query: kon of entry VH + VGTD (antibody, human IgG1, kappa, V domains shown) VH: QVQLEESGGGVVQPGESLRLSCAASGFTFSSYGMHWVRQAPGKGLEWVAVISYDGSNQYYADSVKGRFTISRDNSKNTLYLQMNSLRAEDTAVYYCAKDNQDSSPDVGIDYWGQGTLVTVSS VL: DIQMTQSPSSLSASVGDTVTITCRASQNISPFLNWYQQKPGKAPKLLIYAAVGLQSGVPSRFSGSGSGTDFTLTISSLQPEDFATYYCQQYTDYPLTFGGGTKVEIKR
Reply | 431000

Ask | # query: kon of entry WEST + VL (antibody, human IgG1, kappa, V domains shown) VH: QVQLEESGGGVVQPGESLRLSCAASGFTFSSYGMHWVRQAPGKGLEWVAVIWEDGSNQYYADSVKGRFTISRDNSKNTLYLQMNSLRAEDTAVYYCAKDNQDTSPDVGIDYWGQGTLVTVSS VL: DIQMTQSPSSLSASVGDTVTITCRASQNISPFLNWYQQKPGKAPKLLIYAASSLQSGVPSRFSGSGSGTDFTLTISSLQPEDFATYYCQQYNSYPLTFGGGTKVEIKR
Reply | 371000

Ask | # query: kon of entry WEST + VG (antibody, human IgG1, kappa, V domains shown) VH: QVQLEESGGGVVQPGESLRLSCAASGFTFSSYGMHWVRQAPGKGLEWVAVIWEDGSNQYYADSVKGRFTISRDNSKNTLYLQMNSLRAEDTAVYYCAKDNQDTSPDVGIDYWGQGTLVTVSS VL: DIQMTQSPSSLSASVGDTVTITCRASQNISPFLNWYQQKPGKAPKLLIYAAVGLQSGVPSRFSGSGSGTDFTLTISSLQPEDFATYYCQQYNSYPLTFGGGTKVEIKR
Reply | 452000

Ask | # query: kon of entry T + VGL + TD (antibody, human IgG1, kappa, V domains shown) VH: QVQLEESGGGVVQPGESLRLSCAASGFTFSSYGMHWVRQAPGKGLEWVAVISYDGSNQYYADSVKGRFTISRDNSKNTLYLQMNSLRAEDTAVYYCAKDNQDTSPDVGIDYWGQGTLVTVSS VL: DIQMTQSPSSLSASVGDTVTITCRASQNISPFLNWYQQKPGKAPKLLIYAAVGLQSGVPSRFSGSGSGTDFTLTISSLQPEDFATYYCQQYTDYPLTFGGGTKVEIKR
Reply | 448000
